- study.target: T1, huNav1.7α+β1 (human, UniProt Q15858 1-1988; Q07699 19-218)
- T1 construct: also called huNav1.7-beta1; HEKa/β1
- assay: binding FACS, HEKa/β1 cells
measured.metric: Bmax relative to '535 (%)

As a guide, the following entries are already answered.
[[record]]
binder = "F010301059 (VHH, vs F0103265A11: T57V, V60N, S93A, L103Q) VHH: EVQLVESGGGLVQPGGSLRLSCAASGMLFNANTQGWYRQAPGKQRELVAFIFSGGYVNYNDSVKGRFTISRDNAKRTMYLQMNSLKPEDSAIYYCALSRYQGQGTLVTVSS"
measured_number = 99

[[record]]
binder = "F010301080 (VHH, also called F0103265A11(S53W, T57V, N58T, V60N)) VHH: EVQLVESGGGLVQPGGSLRLSCAASGMLFNANTQGWYRQAPGKQRELVAFIFWGGYVTYNDSVKGRFTISRDNAKRTMYLQMNSLKPEDSAIYYCSLSRYLGQGTLVTVSS"
measured_number = 122


a: F010301463 (VHH, vs F0103265A11: A31R, V60N, S93A, L103Q) VHH: EVQLVESGGGLVQPGGSLRLSCAASGMLFNRNTQGWYRQAPGKQRELVAFIFSGGYTNYNDSVKGRFTISRDNAKRTMYLQMNSLKPEDSAIYYCALSRYQGQGTLVTVSS
b: F010300536 (VHH, vs F0103265A11: N58T) VHH: EVQLVESGGGLVQPGGSLRLSCAASGMLFNANTQGWYRQAPGKQRELVAFIFSGGYTTYVDSVKGRFTISRDNAKRTMYLQMNSLKPEDSAIYYCSLSRYLGQGTLVTVSS
From the items above, decide which of a and b has the lower Bmax relative to '535 reading. Your answer should be the label attached to the chosen record.
b
